tested on: DMS-114; assay: NCI tumour cell line growth inhibition, 48 h
Activity calls are given as the source filed them. No stated cut-off is given here; in the data, active = GI50 up to about 1.1 µM and inactive = higher.
PARAMETER MEASURED: GI50

// returns GI50 for NC(CCCC(N)P(=O)(O)O)C(=O)O (stereo not drawn) with DMS-114; value = > 100 µM (inactive)

"COc1ccc2c(c1)[n+]([O-])c(C(=O)C/C(=N/NC(=O)c1ccccc1O)C(=O)Nc1ccc(Cl)c(C(F)(F)F)c1)c(C)[n+]2[O-]" on DMS-114 gives GI50 = 71.8 µM (inactive)

The value of GI50 recorded for "COc1ccc(CNc2cnc3ccc(N)cc3n2)cc1" when tested on DMS-114 reads 2.09 µM (inactive)

DMS-114 assay, compound "COC(=O)c1nc(NN)cc(O)c1CCCCCc1c(O)nc(NN)nc1C(=O)OC" , recorded GI50 = > 95.1 µM (inactive)

Sample OCC1OC2c3ccccc3COC2C1OCc1ccccc1 (stereo not drawn) , system: DMS-114. Its GI50 is 59.4 µM (inactive)

Field GI50 (DMS-114), entry CCCCCCCCCCCCC(Br)C(=O)SCCNC(=O)CCNC(=O)[C@@H](O)C(C)(C)COP(=O)(O)OP(=O)(O)OCC1OC(n2cnc3c(N)ncnc32)C(O)C1OP(=O)(O)O (stereo partly drawn) : > 56.5 µM (inactive)

Noted GI50 for "CNS(=O)(=O)NN(C)S(=O)(=O)c1ccccc1" , tested on DMS-114: > 100 µM (inactive)

Sample O=C1CCCCCCC2=C1C(Sc1ccccc1)CC2 (stereo not drawn) , system: DMS-114. Its GI50 is 23.7 µM (inactive)

For C=C1C(=O)C23C(CC(OC(C)=O)C1[C@@H]2OC(C)=O)C1(C)C(OC(C)=O)CCC(C)(C)C1C[C@@H]3OC(C)=O (stereo partly drawn) on DMS-114, measured GI50 was 1.14 µM (inactive)

// GI50 (DMS-114) for "N=C(N)NS(=O)(=O)c1ccc(NC(=O)c2cccc3c(Nc4ccc(S(=O)(=O)N=C(N)N)cc4)c4ccccc4nc23)cc1" = 24.9 µM (inactive)

Param item: "CN(C)c1ccc(/C=C(/C(=O)O)c2csc(-c3nc(/C(=C\c4ccc(N(C)C)cc4)C(=O)O)cs3)n2)cc1" ; param system: DMS-114; output GI50: 29.9 µM (inactive)

For the compound "O=C(CCN1CCCCC1)C(=Cc1ccccc1)C(=O)CCN1CCCCC1" , the measured GI50 on DMS-114 was 2.77 µM (inactive)

Tested on DMS-114: "Cn1ncc2c(Nc3ccc(Cl)cc3)c3ccccc3nc21" . Observed GI50: 13.4 µM (inactive)

Reported DMS-114 GI50 for item "O=C(O)COc1ccc(C(=O)/C(SS/C(C(=O)c2ccc(OCC(=O)O)c(Cl)c2Cl)=C2\C=C(c3ccc(F)cc3)SS2)=C2/C=C(c3ccc(F)cc3)SS2)c(Cl)c1Cl" was 3.28 µM (inactive)

Item Cc1ccccc1NC(=O)C(=O)CC(=O)C1CCOC1=O (stereo not drawn) was tested on DMS-114; the reported GI50 is > 100 µM (inactive)

Assay DMS-114, sample "COc1cccc(C(=O)N2CCc3ccccc32)c1OC" , GI50 read: 43.8 µM (inactive)

The recorded GI50 with DMS-114 for "CC1(C)O[C@@H](CCl)C[C@H](C#N)O1" was > 100 µM (inactive)

Result for "CN(CCO)/N=N/c1[nH]cnc1C(N)=O" , tested on DMS-114, GI50: > 100 µM (inactive)

Simply: "CC(C)=CC(=O)CC(=O)C(=O)Nc1ccc(Cl)c(Cl)c1" , DMS-114, GI50 = > 100 µM (inactive)

Record "CC[C@H](C)N(CCN)C(=O)c1cc2ccccc2c(-c2ccccc2Cl)n1" / DMS-114, GI50 recorded as 13.9 µM (inactive)

C=C(C)C1Cc2c(c3ccccc3n(C)c2=O)O1 (stereo not drawn) on DMS-114 gives GI50 = > 100 µM (inactive)

Hey, DMS-114 data for CCN(CC)CCC(=O)NC1c2ccccc2Oc2c(C)cccc21 (stereo not drawn) : GI50 came out at > 100 µM (inactive)

For "N#CCCN(CCC#N)c1ccc(/C=C(/NC(=O)Nc2ccccc2Cl)NC(=O)c2cc([N+](=O)[O-])ccc2Cl)cc1" on DMS-114, measured GI50 was > 100 µM (inactive)

C/C=C(\N=C=S)C(=O)OC1C(COC(C)=O)OC([C@]2(O)CC(=O)C(N)=C(C(=O)O)C2=O)C(O)C1OC1CC(OC)C(O)([C@@H](C)OC(=O)[C@@H](C)CC)C(C)O1 (stereo partly drawn) tested on DMS-114 gave GI50: 6.68 µM (inactive)

Measured GI50 (DMS-114), entry "CC1=NOC(=O)/C1=C/c1cccc2ccccc12" : > 100 µM (inactive)

Considering O=C(CC1C(=O)Nc2ccccc2S1(=O)=O)Nc1cc(Cl)ccc1Cl (stereo not drawn) , its GI50 with DMS-114 was recorded as 12.5 µM (inactive)

GI50 on DMS-114 for "COc1cc(C[P+](c2ccccc2)(c2ccccc2)c2ccccc2)cc(OC)c1OC" is > 100 µM (inactive)

GI50 of "O=C(/C=C/c1c(O)ccc2ccccc12)c1ccccc1Cl" , assay on DMS-114, is 19.9 µM (inactive)
